Molecular target: DRB1*0405 (Homo sapiens, UniProt P01903+P01911, A100R/A169T/D86S/F76Y/I96L/K127E/L162R/M171V/N62H/P40V/Q125Y/R42H/S133A/S149N/S66Y/V115G/V209L/W38E)
Experiment: biochemical
// NB: equality with 0.1 µM counts as Not satisfied; only IC50 strictly below is Satisfied

Study these solved cases before continuing.
| CPD_SMILES | CAT |
| --- | --- |
| CC[C@H](C)[C@H](NC(=O)[C@H](CCCCN)NC(=O)[C@H](C)NC(=O)[C@H](CCCCN)NC(=O)CNC(=O)[C@H](Cc1c[nH]c2ccccc12)NC(=O)[C@@H](N)[C@@H](C)O)C(=O)N[C@H](C(=O)N[C@H](C(=O)N[C@@H](C)C(=O)N[C@@H](CCC(=O)O)C(=O)N[C@H](C(=O)N[C@@H](CCC(N)=O)C(=O)N[C@@H](CC(N)=O)C(=O)N[C@@H](CO)C(=O)O)[C@@H](C)O)[C@@H](C)O)C(C)C | Not satisfied |
| CC(C)C[C@H](NC(=O)[C@H](C)NC(=O)[C@H](CCC(=O)O)NC(=O)[C@H](Cc1ccccc1)NC(=O)[C@H](CCC(=O)O)NC(=O)[C@H](CC(C)C)NC(=O)[C@H](Cc1ccc(O)cc1)NC(=O)[C@H](CCCNC(=N)N)NC(=O)[C@H](C)NC(=O)CNC(=O)[C@H](CC(C)C)NC(=O)[C@@H](N)Cc1c[nH]c2ccccc12)C(=O)NCC(=O)N[C@@H](Cc1ccccc1)C(=O)N[C@@H](CC(C)C)C(=O)N[C@@H](CC(N)=O)C(=O)N[C@@H](CCC(=O)O)C(=O)O | Satisfied |

Task item: Given CSCC[C@H](NC(=O)[C@@H](NC(=O)[C@H](CCC(N)=O)NC(=O)[C@H](Cc1ccccc1)NC(=O)[C@H](CC(N)=O)NC(=O)[C@H](CCCCN)NC(=O)[C@@H]1CCCN1C(=O)[C@@H](N)CC(N)=O)[C@@H](C)O)C(=O)N1CCC[C@H]1C(=O)NCC(=O)N[C@H](C(=O)N[C@@H](Cc1ccccc1)C(=O)N[C@@H](CCC(N)=O)C(=O)N[C@H](C(=O)N[C@H](C(=O)O)[C@@H](C)O)[C@@H](C)O)[C@@H](C)O , is recorded IC50 strictly lower than 0.1 µM?
Reply: Satisfied

Task item: Given CC[C@H](C)[C@H](NC(=O)[C@H](CC(C)C)NC(=O)[C@H](CCCCN)NC(=O)CN)C(=O)N[C@@H](Cc1c[nH]cn1)C(=O)N[C@@H](CCC(=O)O)C(=O)N[C@@H](Cc1c[nH]c2ccccc12)C(=O)N[C@@H](CS)C(=O)N[C@@H](CS)C(=O)N[C@@H](CCCNC(=N)N)C(=O)N[C@@H](CO)C(=O)N[C@@H](CS)C(=O)N[C@H](C(=O)N[C@@H](CC(C)C)C(=O)N1CCC[C@H]1C(=O)O)[C@@H](C)O , is recorded IC50 strictly lower than 0.1 µM?
Reply: Not satisfied

Task item: Given CC[C@H](C)[C@H](NC(=O)[C@@H](N)CCCCN)C(=O)N1CCC[C@H]1C(=O)NCC(=O)NCC(=O)N[C@@H](C)C(=O)N[C@@H](CCSC)C(=O)N[C@@H](Cc1ccc(O)cc1)C(=O)N[C@@H](C)C(=O)N[C@@H](CC(=O)O)C(=O)N[C@@H](CC(=O)O)C(=O)N[C@H](C(=O)N[C@@H](C)C(=O)NCC(=O)N[C@@H](Cc1c[nH]c2ccccc12)C(=O)N[C@@H](CC(=O)O)C(=O)N[C@H](C(=O)O)[C@@H](C)O)[C@@H](C)O , is recorded IC50 strictly lower than 0.1 µM?
Reply: Not satisfied
